pIC50 values, listed per item
testedTarget: UniProtKB P9WNS3
Sequence (P9WNS3 whole entry, looked up): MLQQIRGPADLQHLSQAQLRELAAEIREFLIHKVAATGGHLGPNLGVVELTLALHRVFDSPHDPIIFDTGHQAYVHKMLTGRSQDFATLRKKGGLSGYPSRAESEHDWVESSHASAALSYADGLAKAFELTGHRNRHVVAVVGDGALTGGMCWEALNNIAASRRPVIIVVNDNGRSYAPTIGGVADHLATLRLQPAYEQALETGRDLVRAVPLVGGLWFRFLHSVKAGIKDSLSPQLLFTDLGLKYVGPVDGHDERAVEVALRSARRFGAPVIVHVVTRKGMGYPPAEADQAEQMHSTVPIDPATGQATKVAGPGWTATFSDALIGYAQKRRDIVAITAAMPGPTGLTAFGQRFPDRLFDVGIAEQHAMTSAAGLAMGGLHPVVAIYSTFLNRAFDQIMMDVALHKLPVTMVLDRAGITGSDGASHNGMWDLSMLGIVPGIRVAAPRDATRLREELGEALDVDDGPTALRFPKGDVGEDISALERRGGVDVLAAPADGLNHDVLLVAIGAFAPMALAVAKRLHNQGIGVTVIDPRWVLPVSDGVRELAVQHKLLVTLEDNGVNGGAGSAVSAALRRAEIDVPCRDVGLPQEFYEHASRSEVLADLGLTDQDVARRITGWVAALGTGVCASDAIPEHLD
experiment: biochemical
conditionSet: Table S1, first round of LBVS; MtDXPS; read-out: IC50
pIC50: −log10 of the molar value.

Solved entries:
>  <molecule>
Cc1sc(N)c(C(=O)c2ccccc2)c1C

>  <pIC50>
< 3.92

$$$$
>  <molecule>
O=C1NC(=O)C(c2ccccc2)N1 (stereo not drawn)

>  <pIC50>
< 3.00

$$$$
>  <molecule>
Cc1c(/N=C2\C(=O)N(CC(=O)O)c3ccccc32)c(=O)n(-c2ccccc2)n1C

>  <pIC50>
< 3.92

$$$$
>  <molecule>
CCCSc1nnc(-c2ccccc2NC(C)=O)c(O)n1

>  <pIC50>
< 3.92

$$$$
>  <molecule>
O=C(O)c1cc(O)ccc1C=C(Cl)Cl

>  <pIC50>
< 3.00

$$$$
>  <molecule>
COc1ccc(Cn2ccnc2)cc1N

>  <pIC50>
< 3.00

$$$$
>  <molecule>
C=CCN1C(=O)N/C(=C/c2ccc(O)c(OCC)c2)C1=O

>  <pIC50>
< 4.52

$$$$
>  <molecule>
COc1ccc2[nH]cc(C3NC(N)=Nc4nc5ccccc5n43)c2c1 (stereo not drawn)

>  <pIC50>
< 3.30

$$$$
>  <molecule>
CCNC(=S)Nc1ccc(Cc2ccncc2)cc1

>  <pIC50>
< 3.62

$$$$
>  <molecule>
Oc1ncnc(O)c1C(c1cccs1)c1c(O)ncnc1O

>  <pIC50>
< 3.30

$$$$

Reported pIC50 for Cc1ccc(C(=O)Nc2ccc(O)cc2C(=O)O)cc1 : what is it? < 3.92

Reported pIC50 for COCC(=O)N(C)Cc1cn(C)nc1C : what is it? < 3.00
